Listing of recorded IC50 by entry.
Target: Histone deacetylase
Assay: Inhibition of HDAC from human K562 cells
Assay type: cell-based
measuredEndpoint: IC50

smilestext=O=C(O)CNC(=O)C(=O)CCCCCCOc1ccc(-c2ccccc2)cc1 measuredresult="> 50 µM"
smilestext=CN(C)CCNC(=O)C(=O)CCCCCCOc1ccc(-c2ccccc2)cc1 measuredresult="> 50 µM"
smilestext=NC(=O)C(=O)CCCCCCOc1ccc(-c2ccccc2)cc1 measuredresult="> 50 µM"

###

Test system: HCT-116
Test: Inhibition of human HCT116 cells
Assay type: functional, cell-based
pIC50: −log10 of the molar value.
If the reported pIC50 equals or exceeds 6, assign Satisfied. If not, assign Not satisfied.

smilestext=Nc1ccccc1NC(=O)c1ccc(CSc2nc3ccccc3[nH]2)cc1 categorylabel=Satisfied
smilestext=Cn1cc(CN(CCO)Cc2ccc(C(=O)Nc3ccccc3N)cc2)c2ccccc21 categorylabel="Not satisfied"
smilestext=COc1ccc(CNc2ccc(/C=C/C(=O)Nc3ccccc3N)cc2)cc1 categorylabel="Not satisfied"
smilestext=COc1ccc(CNc2ccc(C(=O)Nc3ccccc3N)cc2)cc1OC categorylabel=Satisfied

###

Listing of recorded IC50 by entry.
Test system: SK-BR-3
Assay: Antiproliferative activity against human SKBR3 cells
Assay type: functional, cell-based
measuredEndpoint: IC50 (µM)

smilestext=Nc1ccccc1NC(=O)c1ccc(CN(CCO)Cc2ccccc2)cc1 tgt=SK-BR-3 endpointunit=µM measuredresult=3.9
smilestext=Nc1ccccc1NC(=O)c1ccc(CN(CCO)Cc2ccc3c(c2)OCO3)cc1 tgt=SK-BR-3 endpointunit=µM measuredresult=3.5
smilestext=O=C(/C=C/c1ccc(CNC(=O)c2ccccn2)cc1)NO tgt=SK-BR-3 endpointunit=µM measuredresult=0.87

###

System: HCT-116
Experiment: Inhibition of human HCT116 cells
Assay type: functional, cell-based
Listing of recorded IC50 by entry.
measuredEndpoint: IC50 (nM)

compound=Nc1ccccc1NC(=O)c1ccc(CN(CCO)Cc2ccc(F)c(F)c2)cc1 measuredendpoint=IC50 measuredresult=800
compound=COc1ccc(CN(CCO)Cc2ccc(C(=O)Nc3ccccc3N)cc2)cc1 measuredendpoint=IC50 measuredresult=800
compound=Nc1ccccc1NC(=O)/C=C/c1ccc(NCc2ccccc2)nc1 measuredendpoint=IC50 measuredresult=1000
compound="CC(=O)CCCCC[C@H](NC1CCCCN1C)C(=O)Nc1nc(-c2ccccc2)cs1 (stereo not given in full)" measuredendpoint=IC50 measuredresult=670
compound=Nc1ccccc1NC(=O)c1ccc(CN(CCO)Cc2ccccc2)cc1 measuredendpoint=IC50 measuredresult=900

Values compiled from ChEMBL document CHEMBL1142268.
